# System: SK-MEL-5
# EXPERIMENTAL DETAILS: Growth of human SK-MEL-5 cells at 10 uM incubated for 48 hrs by sulforhodamine B assay relative to control
# RECORDED CONDITIONS: SK-MEL-5, 48 h
Recorded growth, % of control at 10 µM for the following compounds
Supply the numeric figure in %, leaving out any unit text.

1. CCS/C(Nc1ccccc1)=C(\C#N)C(=O)Nc1ccccc1 = 93.5

From here, focus on the item given below.
Prompt: Return reported growth, % of control at 10 µM; argument: CC(C)(C)S/C(Nc1ccccc1)=C(\C#N)C(=O)N/N=C\c1ccco1
Completion: 96.9

---

# Tested on: Hs-578T
# EXPERIMENTAL DETAILS: Growth inhibition of human Hs 578T cells at 10 uM incubated for 48 hrs by sulforhodamine B assay relative to control
# Type: functional
# RECORDED CONDITIONS: values are per cent of control
Recorded growth, % of control at 10 µM for the following compounds
Supply the numeric figure in %, leaving out any unit text.

Prompt: Return reported growth, % of control at 10 µM; argument: CC(C)(C)S/C(Nc1ccccc1)=C(\C#N)C(=O)Nc1ccccc1
Completion: 99.6

Prompt: Query CCS/C(Nc1ccccc1)=C(\C#N)C(=O)Nc1ccc(C)cc1 next
Completion: 98.9

Prompt: Query CCS/C(Nc1ccccc1)=C(\C#N)C(=O)Nc1ccc(OC)cc1 next
Completion: 27.4
